Target under test: human APJ receptor (Homo sapiens, UniProt P35414)
Construct: expressed in transfected cells; host or cells: HEK293
Sequence (P35414 whole entry): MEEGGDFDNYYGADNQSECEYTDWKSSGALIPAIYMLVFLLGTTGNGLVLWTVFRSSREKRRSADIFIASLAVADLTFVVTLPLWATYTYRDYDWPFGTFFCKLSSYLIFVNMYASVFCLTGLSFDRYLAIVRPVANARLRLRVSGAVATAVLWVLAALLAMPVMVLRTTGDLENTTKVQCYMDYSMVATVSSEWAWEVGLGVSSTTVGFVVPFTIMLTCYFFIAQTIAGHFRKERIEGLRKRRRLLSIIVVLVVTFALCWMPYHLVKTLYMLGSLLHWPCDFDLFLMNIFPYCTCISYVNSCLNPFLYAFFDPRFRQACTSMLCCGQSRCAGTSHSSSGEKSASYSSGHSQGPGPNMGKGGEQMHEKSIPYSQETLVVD
Assay summary: Intracellular cAMP accumulation assay (APJ hcAMP, HTRF)
Type: cell-based
Test parameters: HEK293 cells stably expressing human APJ receptor; inhibition of forskolin-mediated cAMP production; Table 1; read-out: hAPJ cAMP EC50 Potency range
Overview of recorded EC50 for various molecules

Example results:
{"Molecule": "CCN(c1ccccc1)c1c(-c2cnn(C)c2)nc(O)c(S(=O)(=O)c2ccc(-c3ccncc3C)cc2)c1O [Example 156]", "Target under test": "human APJ receptor (Homo sapiens, UniProt P35414)", "Readout kind": "EC50", "Test value": "0.01 to 10 nM"}
{"Molecule": "CCN(c1ccccc1)c1c(-c2cccc(C)c2)nc(O)c(S(=O)(=O)c2ccc(Br)cc2)c1O [Example 131]", "Target under test": "human APJ receptor (Homo sapiens, UniProt P35414)", "Readout kind": "EC50", "Test value": "10 to 100 nM"}
{"Molecule": "CCCCc1nc(O)c(S(=O)(=O)c2ccc(-c3ccnc(F)c3C)cc2)c(O)c1N1CCC(C)c2ccccc21 (stereo not shown) [Example 044]", "Target under test": "human APJ receptor (Homo sapiens, UniProt P35414)", "Readout kind": "EC50", "Test value": "0.01 to 10 nM"}

Recorded EC50 for CCCCc1nc(O)c(S(=O)(=O)c2ccc(-c3ccncc3C)cc2)c(O)c1N(CC)c1cccc(C#N)c1 [Example 170] with human APJ receptor (Homo sapiens, UniProt P35414), please?
0.01 to 10 nM

Recorded EC50 for CCN(c1cccc(C#N)c1)c1c(-c2ccn(C)n2)nc(O)c(S(=O)(=O)c2ccc(-c3ccccc3C(=O)N(C)C)cc2)c1O [Example 210] with human APJ receptor (Homo sapiens, UniProt P35414), please?
0.01 to 10 nM

Recorded EC50 for CCCCc1nc(O)c(S(=O)(=O)c2ccc(-c3cccnc3C)cc2)c(O)c1N(c1ccccc1)C(C)C [Example 025] with human APJ receptor (Homo sapiens, UniProt P35414), please?
0.01 to 10 nM

Recorded EC50 for CCCCc1nc(O)c(S(=O)(=O)c2ccc(-c3ccc(F)nc3C)cc2)c(O)c1N1CCCCC1c1ccccc1 (stereo not shown) [Example 126] with human APJ receptor (Homo sapiens, UniProt P35414), please?
10 to 100 nM
